Recorded values, source the supplement of paper PMC10065799.

tested target: FGFR3 (UniProt P22607)
Sequence (P22607 whole entry, looked up): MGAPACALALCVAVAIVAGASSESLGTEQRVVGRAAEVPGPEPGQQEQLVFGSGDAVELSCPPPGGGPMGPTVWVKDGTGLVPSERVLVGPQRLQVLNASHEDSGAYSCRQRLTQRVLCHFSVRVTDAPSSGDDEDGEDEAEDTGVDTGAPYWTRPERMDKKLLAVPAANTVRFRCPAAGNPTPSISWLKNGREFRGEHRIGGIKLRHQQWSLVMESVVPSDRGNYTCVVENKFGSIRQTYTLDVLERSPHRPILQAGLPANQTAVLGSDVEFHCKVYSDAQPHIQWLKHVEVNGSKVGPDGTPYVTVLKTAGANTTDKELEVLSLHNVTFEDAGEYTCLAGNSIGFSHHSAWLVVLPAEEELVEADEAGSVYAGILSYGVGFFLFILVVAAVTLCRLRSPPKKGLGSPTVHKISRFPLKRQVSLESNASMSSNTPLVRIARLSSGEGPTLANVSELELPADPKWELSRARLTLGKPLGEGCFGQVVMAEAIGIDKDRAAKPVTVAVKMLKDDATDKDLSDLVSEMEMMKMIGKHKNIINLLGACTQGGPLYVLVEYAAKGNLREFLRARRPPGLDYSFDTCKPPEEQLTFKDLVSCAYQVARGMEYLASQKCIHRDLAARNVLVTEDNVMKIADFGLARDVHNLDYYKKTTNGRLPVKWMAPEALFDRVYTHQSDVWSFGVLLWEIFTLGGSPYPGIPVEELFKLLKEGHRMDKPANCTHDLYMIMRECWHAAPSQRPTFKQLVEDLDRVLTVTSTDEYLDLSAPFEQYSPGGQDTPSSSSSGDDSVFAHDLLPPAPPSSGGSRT
assay remarks: phosphorylation enrichment, bacterial display (enrichment ratio); higher = better substrate or ligand; peptides without Tyr show the background;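 also: 11-residue human phosphosite peptides and single-mutation variants displayed on the E. coli surface, counted by deep sequencing, each peptide's frequency after selection divided by its frequency in the unselected input library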;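 also: frequency after pTyr selection over input frequency; kinase dosed for 20-30% of maximal phosphorylation in three min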
Give phosphorylation enrichment for every item shown.
Answer with a number only.

Need phosphorylation enrichment, item QSPQLYKQMCI [DARS1_Y253]
0.573

Need phosphorylation enrichment, item NTVLGYFIGRI [GARS1_Y408]
0.617

Need phosphorylation enrichment, item KNEKVYTRHGV [FLOT1_Y56_S52N]
0.356

Need phosphorylation enrichment, item EHIEFYELDKK [PMM2_Y145_R141H]
0.571

Need phosphorylation enrichment, item PEADKYHLTFA [FGG_Y300_R301H_YF]
1.5

Need phosphorylation enrichment, item GVRLFYRVRES [RB1_Y454_M457R_YF]
0.65

Need phosphorylation enrichment, item LQKPMYEVQWK [KIT_Y553]
1.49

Need phosphorylation enrichment, item GGDVIYKGFED [NFU1_Y194]
0.629

Need phosphorylation enrichment, item PSRKDYETYQS [CTNND2_Y1154_P1159S]
0.704

Need phosphorylation enrichment, item RENGPYFASFP [GDAP2_Y487_T489A_YF]
0.891

Need phosphorylation enrichment, item FFRCHYPLTTL [TNS4_Y644_R642C]
0.696

Need phosphorylation enrichment, item EAMPDYKKQLR [SPATA18_Y229_S227P]
0.444

Need phosphorylation enrichment, item SVVLPYEPPEV [TP53_Y220_V218L]
0.704

Need phosphorylation enrichment, item CTLLPYYSARV [DGKE_Y269]
0.699

Need phosphorylation enrichment, item LTTEVYFPSIK [C5orf64_Y60_A57T]
0.661

Need phosphorylation enrichment, item GVLKEYGEKVL [CPS1_Y529_V531E]
0.466

Need phosphorylation enrichment, item HRGFLYLAIEF [TEK_Y899_Y897F_YF]
1.02

Need phosphorylation enrichment, item PNLILYGDFRQ [MYH7_Y715_R712L]
0.762

Need phosphorylation enrichment, item VSAPEYGPKLK [TBC1D14_Y46_L41V]
0.504

Need phosphorylation enrichment, item MKALGYFAVGT [OPA1_Y498_V502G]
0.64

Need phosphorylation enrichment, item ATARPYRPYII [LRP5_Y1528]
0.545

Need phosphorylation enrichment, item KGYRGYSYDDI [TMEM230_Y110]
0.509

Need phosphorylation enrichment, item `LAVNPYGPPDP`
0.493

Need phosphorylation enrichment, item MTKEQYIKMNR [ARFGEF2_Y797]
0.445

Need phosphorylation enrichment, item FSPPYYHRNCM [HGD_Y334_R330S]
0.609

Need phosphorylation enrichment, item EGDGVYTLNNE [HP_Y125]
0.822

Need phosphorylation enrichment, item GLRYGYGVLGG [KRTAP20-2_Y15]
0.497

Need phosphorylation enrichment, item IKNSGYISRFL [EIF2AK3_Y585_YF]
0.495

Need phosphorylation enrichment, item LENSTYQYIHV [CRB1_Y760_R764H]
5.6

---

System: c-Abl (mouse)
assay remarks: phosphorylation enrichment, bacterial display (enrichment ratio); higher = better substrate or ligand; peptides without Tyr show the background
Param threshold (0.7) applies to phosphorylation enrichment; output T when value >= threshold, F when value < threshold.

# check: phosphorylation enrichment of PGIRMYRVQYN [LRFN1_Y454_Q455R] is greater than or equal to 0.7
F

# check: phosphorylation enrichment of VGTKRYMASEV [ACVRL1_Y375_P378S] is greater than or equal to 0.7
F

# check: phosphorylation enrichment of YGPPQYNIQYS [ERBB2IP_Y977] is greater than or equal to 0.7
T

# check: phosphorylation enrichment of ELAKYYKLHHI [AK7_Y391_N389K] is greater than or equal to 0.7
F

# check: phosphorylation enrichment of SFPREYGSQEG [RBM10_Y48_YF] is greater than or equal to 0.7
F

# check: phosphorylation enrichment of RQQQDYWLIDV [ANPEP_Y600] is greater than or equal to 0.7
T

# check: phosphorylation enrichment of FAELVYTGFWH [ASS1_Y322] is greater than or equal to 0.7
T

# check: phosphorylation enrichment of VYLGAYDRFLP [SLC22A5_Y486] is greater than or equal to 0.7
T

# check: phosphorylation enrichment of DVRQEYPGMIL [PLXND1_Y616] is greater than or equal to 0.7
F

# check: phosphorylation enrichment of SAVTGYRVDVI [FN1_Y937] is greater than or equal to 0.7
F

# check: phosphorylation enrichment of KASIMYPSSNC [CXCL11_Y52_N55S] is greater than or equal to 0.7
F

# check: phosphorylation enrichment of KASGKYFAMKI [AKT3_Y173_YF] is greater than or equal to 0.7
F

# check: phosphorylation enrichment of KVNKIYHPDFI [LIG3_Y767_Y768H] is greater than or equal to 0.7
F
